Each record here notes measured DC50.
targetOrTestSystem: IRAK4 (Homo sapiens, UniProt Q9NWZ3)
Construct: endogenous in cells; host or cells: OCI-LY10
Sequence (Q9NWZ3 1-460): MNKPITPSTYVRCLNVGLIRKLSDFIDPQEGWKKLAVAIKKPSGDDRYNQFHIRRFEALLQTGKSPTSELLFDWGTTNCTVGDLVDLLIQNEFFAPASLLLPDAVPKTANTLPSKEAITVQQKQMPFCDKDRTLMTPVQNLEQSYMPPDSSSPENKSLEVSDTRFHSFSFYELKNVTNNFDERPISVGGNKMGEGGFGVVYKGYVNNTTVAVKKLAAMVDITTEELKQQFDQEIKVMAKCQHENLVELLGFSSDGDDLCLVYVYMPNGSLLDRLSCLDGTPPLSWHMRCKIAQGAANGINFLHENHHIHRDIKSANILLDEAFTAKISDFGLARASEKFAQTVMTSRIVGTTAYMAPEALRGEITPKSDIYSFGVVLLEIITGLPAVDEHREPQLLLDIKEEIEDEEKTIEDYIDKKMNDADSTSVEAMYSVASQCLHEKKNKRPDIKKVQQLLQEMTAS
method: IRAK4 MSD Degradation in OCI-LY10
Format: cell-based
statedConditions: OCI-LY10 cells, 24 hrs incubation, read-out: IRAK4 degradation in OCI-LY10 at 24 hrs: DC50
measurementLabel: DC50

compound | result
COc1cc2nn([C@H]3CC[C@H](CN4CCC5(CC4)CCN(c4cccc6c4C(=O)N(C4CCC(=O)NC4=O)C6=O)CC5)CC3)cc2cc1NC(=O)c1cccc(C(F)(F)F)n1 (some centres unmarked) | 50 to 100 nM
COc1cc2nc([C@H]3CC[C@H](CN4CCC5(CC4)CC(CCNc4cccc6c4C(=O)N(C4CCC(=O)NC4=O)C6=O)C5)CC3)oc2cc1NC(=O)c1cccc(C(F)(F)F)n1 (some centres unmarked) | 100 to 500 nM
CC(C)(O)c1cc2nc([C@H]3CC[C@H](CN4CCC5(CC4)CC(Nc4cccc6c4C(=O)N(C4CCC(=O)NC4=O)C6=O)C5)CC3)oc2cc1NC(=O)c1cccc(C(F)(F)F)n1 (some centres unmarked) | 50 to 100 nM
C[C@]1(CN2CCC3(CC2)CC(CCNc2cccc4c2C(=O)N(C2CCC(=O)NC2=O)C4=O)C3)Cc2cc(NC(=O)c3cccc(C(F)(F)F)n3)c(N3CCOCC3)cc2O1 (some centres unmarked) | 500 to 1000 nM
COc1cc2nn([C@H]3CC[C@H](CN4CCC5(CC4)CC(CCNc4cccc6c4C(=O)N(C4CCC(=O)NC4=O)C6=O)C5)CC3)cc2cc1NC(=O)c1ccccn1 (some centres unmarked) | 50 to 100 nM

---

Each record here notes measured DC50.
targetOrTestSystem: IRAK4 (Homo sapiens, UniProt Q9NWZ3)
Construct: endogenous in cells; host or cells: OCI-LY10
method: IRAK4 MSD Degradation in OCI-LY10
Type: cell-based
statedConditions: OCI-LY10 cells, 4 hrs incubation, read-out: IRAK4 degradation in OCI-LY10 at 4 hrs: DC50

compound | DC50
Cn1c(=O)n(C2CCC(=O)NC2=O)c2cccc(CN3CC4(CCN(C(=O)[C@H]5CC[C@H](n6cc7cc(NC(=O)c8cccc(C(F)(F)F)n8)c(C(C)(C)O)cc7n6)CC5)CC4)C3)c21 (some centres unmarked) | < 50 nM
COc1cc2nn([C@H]3CC[C@H](CN4CC(c5ccc6c(c5)n(C)c(=O)n6C5CCC(=O)NC5=O)C4)CC3)cc2cc1NC(=O)c1cccc(C(F)(F)F)n1 (some centres unmarked) | < 50 nM
COc1cc2nn([C@H]3CC[C@H](CN4CCN(c5ccc6c(c5)n(C)c(=O)n6C5CCC(=O)NC5=O)CC4)CC3)cc2cc1NC(=O)c1cccc(C(F)(F)F)n1 (some centres unmarked) | < 50 nM
CN(C[C@H]1CC[C@H](n2cc3cc(NC(=O)c4cccc(C5CC5)n4)c(C(C)(C)O)cc3n2)CC1)C1CCN(Cc2cccc3c2n(C)c(=O)n3C2CCC(=O)NC2=O)CC1 (some centres unmarked) | < 50 nM
COc1cc2nn([C@H]3CC[C@H](CN4CC(c5cccc6c5n(C)c(=O)n6C5CCC(=O)NC5=O)C4)CC3)cc2cc1NC(=O)c1cccc(C(F)(F)F)n1 (some centres unmarked) | 50 to 100 nM

---

Tested on: OCI-LY19 (MYD88 WT line)
method: OCI-LY19 viability, CTG
Type: cell-based
statedConditions: Homo sapiens, in vitro
measurementLabel: IC50

compound | targetOrTestSystem | result
CN(C[C@H]1CC[C@H](n2cc3cc(NC(=O)c4cccc(C(F)(F)F)n4)c(C(C)(C)O)cc3n2)CC1)C1CCN(Cc2cccc3c2n(C)c(=O)n3C2CCC(=O)NC2=O)CC1 (stereo partly shown) | OCI-LY19 (MYD88 WT line) | > 10 µM

---

targetOrTestSystem: IRAK4 (Homo sapiens)
Construct: endogenous in cells; host or cells: OCI-LY10
method: IRAK4 MSD Degradation in OCI-LY10
Type: cell-based
statedConditions: OCI-LY10 cells, 24 hrs incubation, read-out: IRAK4 degradation in OCI-LY10 at 24 hrs: DC50

molecule | DC50
CC(C)(O)c1cc2c(cnn2CCN2CCC3(CC2)CC(CCNc2cccc4c2C(=O)N(C2CCC(=O)NC2=O)C4=O)C3)cc1NC(=O)c1cccc(C(F)(F)F)n1 (stereo not drawn) | 500 to 1000 nM
COc1cc2nn([C@H]3CC[C@H](CN4CCO[C@H](CCCNc5cccc6c5C(=O)N(C5CCC(=O)NC5=O)C6=O)C4)CC3)cc2cc1NC(=O)c1cccc(C(F)(F)F)n1 (stereo partly drawn) | 50 to 100 nM
COc1cc2nn([C@H]3CC[C@H](CN4CCC(CO[C@H]5C[C@H](Nc6cccc7c6C(=O)N(C6CCC(=O)NC6=O)C7=O)C5)CC4)CC3)cc2cc1NC(=O)c1cccc(C(C)(C)F)n1 (stereo partly drawn) | 50 to 100 nM

---

targetOrTestSystem: IRAK4 (Homo sapiens, UniProt Q9NWZ3)
Construct: endogenous in cells; host or cells: OCI-LY10
method: IRAK4 MSD Degradation in OCI-LY10
Format: cell-based
statedConditions: OCI-LY10 cells, 4 hrs incubation, read-out: IRAK4 degradation in OCI-LY10 at 4 hrs: DC50
Experimental: Degradation of IRAK4 in OCI-LY10 was quantitatively measured using Meso Scale Discovery technology. […] Compounds were then added to the assay plates with a final top concentration of 1 to 10 μM in a 1:3 dilution series with total of 8 doses. […] The assay plates were then incubated at room temperature for 1 hour, washed 3 times with 150 μL/well TBST buffer, and 150 μL/well MSD reading buffer (Meso Scale Discovery catalog number R92TC-2) was added. […]
Each record here notes measured DC50.
measurementLabel: DC50

compound | result
COc1cc2nn([C@H]3CC[C@H](CN4[C@@H]5CC[C@H]4CN(CCc4cccc6c4n(C)c(=O)n6C4CCC(=O)NC4=O)C5)CC3)cc2cc1NC(=O)c1cccc(C(F)(F)F)n1 (stereo partly drawn) [I-133] | < 50 nM
Cn1c(=O)n(C2CCC(=O)NC2=O)c2cccc(CCC3CC4(CCN(C[C@H]5CC[C@H](n6cc7cc(NC(=O)c8ccccn8)c(C(F)F)cc7n6)CC5)CC4)C3)c21 (stereo partly drawn) [I-277] | < 50 nM
COc1cc2nn([C@H]3CC[C@H](CN(C)C4CCN(c5ccc6c(c5)n(C)c(=O)n6C5CCC(=O)NC5=O)CC4)CC3)cc2cc1NC(=O)c1cccc(C(F)(F)F)n1 (stereo partly drawn) [I-107] | < 50 nM

---

Each record here notes measured pIC50.
Tested on: OCI-LY10 cells
method: CTG Cell Viability Assay - OCI-LY10
Format: cell-based
statedConditions: Homo sapiens, 96 h; OCI-LY10 cells, 4 days, CellTiter-Glo; read-out: CTG Cell Viability Assay - OCI-LY10: IC50
pIC50: −log10 of the molar value.
measurementLabel: pIC50

compound | result
COc1cc2nn([C@H]3CC[C@H](CN4CC5(CC(CCNc6cccc7c6C(=O)N(C6CCC(=O)NC6=O)C7=O)C5)C4)CC3)cc2cc1NC(=O)c1cccc(C(C)(F)F)n1 (mixture of isomers) | > 7.30
COc1cc2nn([C@H]3CC[C@H](CN4CCC5(CC4)CC(CNc4cccc6c4C(=O)N(C4CCC(=O)NC4=O)C6=O)C5)CC3)cc2cc1NC(=O)c1cccc(C(F)(F)F)n1 (stereo partly drawn) | > 7.30
COc1cc2nn([C@H]3CC[C@H](CN(C)C4CCN(c5cccc6c5n(C)c(=O)n6C5CCC(=O)NC5=O)CC4)CC3)cc2cc1NC(=O)c1cccc(C(F)(F)F)n1 (stereo partly drawn) | < 6.00

---

Each record here notes measured DC50.
targetOrTestSystem: IRAK4 (Homo sapiens)
Construct: endogenous in cells; host or cells: OCI-LY10
method: IRAK4 MSD Degradation in OCI-LY10
Type: cell-based
statedConditions: OCI-LY10 cells, 4 hrs incubation, read-out: IRAK4 degradation in OCI-LY10 at 4 hrs: DC50

molecule | DC50
Cn1c(=O)n(C2CCC(=O)NC2=O)c2cccc([C@H]3CC[C@H](N(C)C[C@H]4CC[C@H](n5cc6cc(NC(=O)c7cccc(C(F)(F)F)n7)c(C(F)F)cc6n5)CC4)CC3)c21 (single isomer, unassigned) [I-164] | < 50 nM
COc1cc2nn([C@H]3CC[C@H](CN(C)C4CCC5(CC4)CC(Cc4cccc6c4n(C)c(=O)n6C4CCC(=O)NC4=O)C5)CC3)cc2cc1NC(=O)c1cccc(C(F)(F)F)n1 (stereo partly drawn) [I-117] | 50 to 100 nM
Cn1c(=O)n(C2CCC(=O)NC2=O)c2cccc(CCN3C[C@H]4CC[C@@H](C3)N4CC[C@H]3CC[C@H](n4cc5cc(NC(=O)c6cccc(C(F)(F)F)n6)c(C(C)(C)O)cc5n4)CC3)c21 (stereo partly drawn) [I-97] | < 50 nM
